- tested.target: chimpanzee Androgen Receptor (AR), AR (gene 747460)
- experiment.summary: NVS_NR_cAR: NovaScreen (NVS) Nuclear Receptor Binding Assay for chimpanzee Androgen Receptor (AR) (AID 2283346);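 further: radioligand displacement from AR measured by scintillation counting in a cell-free assay; a loss of bound radioligand signal versus DMSO counts as binding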
Results filed as inconclusive are left out. Activity calls are given as the source filed them. How the source made its calls: active means hit-call score of the fitted dose curve at least 0.9, where 1 is the maximum; inconclusive means response in the unintended direction; inactive means score below 0.9.
Output constraint: value belongs to 1 (active), -1 (inactive)

Answered examples (5):
INSERT INTO measurements (compound, qualitative_label) VALUES
  ('Nc1c(Oc2ccccc2)cc(O)c2c1C(=O)c1ccccc1C2=O', -1),
  ('Cc1ccc2nc3sc(=O)sc3nc2c1', 1),
  ('Oc1cc(Cl)c(Cl)cc1Cl', -1),
  ('O=S1(=O)OC(c2cc(Br)c(O)c(Br)c2)(c2cc(Br)c(O)c(Br)c2)c2ccccc21', 1),
  ('C#CCOC(=O)/C=C(C)/C=C/CC(C)CCCC(C)C (centres undefined)', -1);

Write down the call the test reported for this compound. Item: OC(Cc1ccccc1Cl)(Cn1cncn1)C1(Cl)CC1 (centres undefined) -1

Write down the call the test reported for this compound. Item: CC(C)=CC1C(C(=O)OCc2cccc(Oc3ccccc3)c2)C1(C)C (centres undefined) -1

Write down the call the test reported for this compound. Item: O=c1oc2ccccc2c(O)c1C(CC(O)c1ccc(-c2ccc(Br)cc2)cc1)c1ccccc1 (centres undefined) -1

Write down the call the test reported for this compound. Item: N#CS -1

* * *

- experiment.summary: BSK_3C_Vis: BioMAP Diversity Plus: 3C Assay for Morphology Visualization (AID 2283025);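 further: fitted both ways so gain or loss versus DMSO counts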
- condition.set: primary human endothelial cells (HUVEC)
The source made the active and inactive calls. How the source made its calls: active means hit-call score of the fitted dose curve at least 0.9, where 1 is the maximum; inactive means score below 0.9.
Output constraint: value belongs to 1 = active, 0 = inactive

INSERT INTO results (compound, qualitative_label) VALUES
  ('OCCN(CCO)CCO', 0);

As a next step, examine the compound that follows.
Write down the call the test reported for this compound. Item: CC(C)N(C(=O)CCl)c1ccccc1 1

* * *

- experiment.summary: ACEA_AR_antagonist_AUC_viability: ACEA Biosciences xCELLigence Real-Time Cell Analysis on Androgen Receptor Antagonism for Viability (AID 2283776);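 further: 22Rv1 human prostate cancer cells growing on impedance electrode plates; area under impedance growth curve at 80 h after dosing as viability; hits lower the growth signal relative to DMSO meaning cytotoxicity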
Records with an inconclusive call do not appear. Calls of active or inactive are those of the source. Rule for the calls: active = hit-call score of the fitted dose curve at least 0.9, where 1 is the maximum; inconclusive = response in the unintended direction; inactive = score below 0.9.
Output constraint: value belongs to active, inactive

Answered examples (3):
INSERT INTO assay_data (compound, qualitative_label) VALUES
  ('CCCCCCCCCCCCc1cccc(S(=O)(=O)O)c1', 'active'),
  ('N#CCCC(Br)(C#N)CBr (stereo not given)', 'inactive'),
  ('CCC[CH2][Sn]([Cl])([Cl])[CH2]CCC', 'active');

Write down the call the test reported for this compound. Item: COC(=O)Nc1cccc(OC(=O)Nc2cccc(C)c2)c1 inactive

Write down the call the test reported for this compound. Item: Oc1c(Br)cc(Br)cc1Br inactive

* * *

- tested.target: Estrogen receptor (Homo sapiens)
- experiment.summary: ATG_ERa_TRANS: Attagene TRANS-FACTORIAL HepG2 Assay for human Estrogen Receptor alpha (ERa) (AID 2282970)
- condition.set: HepG2 Attagene TRANS ERa GAL4 reporter, mRNA
Results filed as inconclusive are left out. The source made the active and inactive calls. The calls were made as follows: active = hit-call score of the fitted dose curve at least 0.9, where 1 is the maximum; inconclusive = response in the unintended direction; inactive = score below 0.9.
Output constraint: value belongs to active, inactive

Answered examples (5):
INSERT INTO assay_data (molecule, qualitative_label) VALUES
  ('O=C=Nc1ccc(Cl)cc1', 'inactive'),
  ('Nc1nc(=S)[nH][nH]1', 'inactive'),
  ('CCCCCCCCCCBr', 'active'),
  ('Cc1cccc(N=Nc2ccc(N(C)C)cc2)c1', 'inactive'),
  ('c1ccc2sc(SNC3CCCCC3)nc2c1', 'inactive');

Write down the call the test reported for this molecule. Item: C=CCCl inactive

Write down the call the test reported for this molecule. Item: c1ccc(-c2cccc(-c3ccccc3)c2)cc1 active

Write down the call the test reported for this molecule. Item: O=[N+]([O-])c1cc([As](=O)(O)O)ccc1O inactive
